Data origin: the supplement of paper PMC10567573

B1: ZNF232 (parent)
chain: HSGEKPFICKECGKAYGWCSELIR

variants of: B1; test: protein stability index of a GFP-peptide fusion (GPS, HEK-293T) (PSI 1-6); higher = more stable; conditions: c terminus: a fixed tail appended;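 note: lentivirally expressed fusions sorted by FACS into six bins by GFP to DsRed ratio, PSI derived from sequencing read proportions per bin multiplied by bin number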
Recorded measurements of protein stability index, one per entry

Before answering, review these 6 worked examples.
>  <mutation notation>
P6H

>  <protein stability index>
2.04

$$$$
>  <mutation notation>
C19P

>  <protein stability index>
2.03

$$$$
>  <mutation notation>
E4Q

>  <protein stability index>
1.53

$$$$
>  <mutation notation>
F7C

>  <protein stability index>
1.73

$$$$
>  <mutation notation>
Y16H

>  <protein stability index>
3.04

$$$$
>  <mutation notation>
C12Q

>  <protein stability index>
1.88

$$$$

Task item: Item "S20P" has what recorded protein stability index?
Reply: 1.87

Task item: Item "S20L" has what recorded protein stability index?
Reply: 1.39

Task item: Item "G17A" has what recorded protein stability index?
Reply: 1.84
